# Tested on: L1210 leukemia ip in BDF1 mice, survival T/C
# run_description: NCI In Vivo Anticancer Drug Screen. Data for tumor model L1210 Leukemia (intraperitoneal) in B6D2F1 (BDF1) mice
# measurement_context: endpoint: mean survival time; dose: 50.0 mg/kg/injection; schedule: Q01DX009 (ip); vehicle: Klucel (hydroxypropylcellulose) (HPC); higher = longer survival
# Protocol: The antitumor activity of compounds was measured in mice bearing transplantable tumors. Survival or tumor size were measured and the results are expressed as the measurement made in the treated group (T) divided by the measurement made in the vehicle treated control group (C). The tumor model used in this assay is L1210 Leukemia (intraperitoneal) in B6D2F1 (BDF1) mice
Toxic doses and inconclusive results are not listed.
We begin with a simple list: items and their reported T/C.
readout_name: T/C

In [3]: df
Out[3]:
                                    molecule           reading
 0  O=Cc1cn(C2CC(O)C(CO)O2)c(=O)[nH]c1=O (stereo not given)  117 % of control
 1                Cc1ccc(NC(=O)C(F)(F)F)cc1F   93 % of control
 2  O=C1c2cccc3c([N+](=O)[O-])ccc(c23)C(=O)N1CCCN1CCOCC1   98 % of control
 3  CC(=O)OC1C=C2CCC3C(CCC4(C)C(OC(C)=O)CCC34)C2(C)CC1 (stereo not given)   90 % of control
 4    CCCCCCOc1ccc(C=Nc2ccc(C(=O)OCC)cc2)cc1   96 % of control
 5          CNc1nc(N(C)C)nc(C)c1[N+](=O)[O-]   91 % of control
 6  O=c1[nH]c(CC(O)C(Cl)(Cl)Cl)nc2ccccc12 (stereo not given)  100 % of control
 7   C[N+](C)(C)CC(O)CC#N (stereo not given)   93 % of control
 8  CC(=O)OC1CCC2(C)C(CCC3C4CC=C(C(C)=O)C4(C)OC(=O)CC32)C1 (stereo not given)   98 % of control
 9  COC(=O)c1ccc(OC(=O)Nc2ccc([N+](=O)[O-])cc2OC)cc1  101 % of control
10  C/C(N=Nc1ccccc1[N+](=O)[O-])=N\Nc1ccccc1   95 % of control
11            Cc1cc(C)c(C(Cl)(Cl)Cl)c(C)c1Cl  100 % of control
12  ClC1=C(Cl)C2(Cl)C3COCC3C1(Cl)C2(Cl)Cl (stereo not given)  105 % of control
13  CN(C)CC1C2C=CC(C3CC23)C1CN(C)C (stereo not given)  107 % of control
14  O=C1C2CCC(=O)N2c2ccccc2S(=O)(=O)C1c1ccccc1 (stereo not given)   91 % of control
15              Clc1cc(Cl)c(OCC#CI)c(Cl)c1Cl   96 % of control
16  CC(C)(O)C(C)(O)c1cccc(Cl)c1 (stereo not given)  100 % of control
17                        CCCCCCCCC(=O)N1CC1   94 % of control
18  CCCCN1C(=O)C2CC=C3C=CN4C(C3C2C1=O)C1C(=O)N(CCCC)C(=O)C1C41CC(=O)N(CCCC)C1=O (stereo not given)   91 % of control
19                   NC(=O)NC(=O)/C=C\C(=O)O   93 % of control
